Assignment: determine reported abundance fitness for the given variants.
B1: Cytoplasmic polyadenylation element-binding protein 2, residues 513 to 575; numbered along this chain, Q7Z5Q1 (parent)
chain: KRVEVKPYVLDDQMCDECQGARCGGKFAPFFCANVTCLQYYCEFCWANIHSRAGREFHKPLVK

# Variants of: B1
# ASSAY_TEXT: abundance fitness (aPCA) (normalised: wild type 0, dead -1); higher = more abundant; growth selection in yeast, the domain comes from the species named
# MEASUREMENT_PARAMETERS: Homo sapiens
Give bare numbers.

Answered examples (4):
KRVEVKPYVLDDQMCDECQGARCGGKFAPFFCANVTCLQYYCEFCWANIHSDAGREFHKPLVK: 0.156
KMVEVKPYVLDDQMCDECQGARCGGKFAPFFCANVTCLQYYCEFCWANIHSRAGREFHKPLVK: -0.012
KREEVKPYVLDDQMCDECQGARCGGKFAPFFCANVTCLQYYCEFCWANIHSRAGREFHKPLVK: 0.084
KRVEVKPYVLDDQMCDECQGARCGGKFAPFFCANVTCLQYYCEFSWANIHSRAGREFHKPLVK: -1.1

Would you mind giving abundance fitness for every variant in the list below?
1. KRVEVKPYVLDDQMCDECQGARCGGTFAPFFCANVTCLQYYCEFCWANIHSRAGREFHKPLVK
2. KRVEVKPYVLDDQMCDECQGARCGGHFAPFFCANVTCLQYYCEFCWANIHSRAGREFHKPLVK
3. KRVEVKPVVLDDQMCDECQGARCGGKFAPFFCANVTCLQYYCEFCWANIHSRAGREFHKPLVK

Outgoing:
-0.073
-0.126
-0.086

Would you mind giving abundance fitness for every variant in the list below?
1. KRVEVKPYVLDDQMCDECQGARCGGKFAPFFCANVTCLQYYCEFCWANIHSRAGREYHKPLVK
2. KRVEVKPYVLDDQMCDECQGARCGGKFAPFFCANVTRLQYYCEFCWANIHSRAGREFHKPLVK
3. KRVEVKPYVLDDQMHDECQGARCGGKFAPFFCANVTCLQYYCEFCWANIHSRAGREFHKPLVK
4. KRVEVKPYVLDDQMCDECQGARCGGKFAPFFCANVTCLQYYCEFCWANIHSRAGREFHKPTVK

Outgoing:
[-0.032, -0.55, -0.418, 0.076]
